# Test system: pigweed
# assaySummary: Test A pre-/postemergence herbicide test
# Format: in vivo, Amaranthus retroflexus
# particulars: Postemergence, 125 g ai/ha; visual rating on 0 to 100 scale (0 no effect, 100 complete control), approx. 10 days
measurementType: Plant response rating, Pigweed

{"compound": "CC(C)c1cccc(C2CNC(=O)C2C(=O)Nc2cccc(F)c2F)c1 (centres unmarked)", "measurementType": "Plant response rating, Pigweed", "result": 0}
{"compound": "O=C1NCC(c2cccc(Br)c2)C1C(=O)Nc1ccc(F)c(F)c1F (centres unmarked)", "measurementType": "Plant response rating, Pigweed", "result": 0}
{"compound": "O=C1NCC(c2cccc(-n3ccc(C(F)(F)F)n3)c2)C1C(=O)Nc1cccc(F)c1F (centres unmarked)", "measurementType": "Plant response rating, Pigweed", "result": 0}
{"compound": "CN1CC(c2ccc(C(F)(F)F)cc2)C(C(=O)Nc2cccc(F)c2F)C1=O (centres unmarked)", "measurementType": "Plant response rating, Pigweed", "result": 70}
{"compound": "O=C1NCC(c2ccc(Br)c(Br)c2)C1C(=O)Nc1ccc(F)cc1F (centres unmarked)", "measurementType": "Plant response rating, Pigweed", "result": 0}
{"compound": "C=CCN(C(=O)C1C(=O)NCC1c1ccc(F)c(F)c1)c1ccccc1[N+](=O)[O-] (centres unmarked)", "measurementType": "Plant response rating, Pigweed", "result": 40}
{"compound": "CN1CC(c2ccc(F)cc2)C(C(=O)Nc2ccccc2F)C1=O (centres unmarked)", "measurementType": "Plant response rating, Pigweed", "result": 40}
{"compound": "O=C1NCC(c2cccc(Oc3ccccc3)c2)C1C(=O)Nc1ccc(F)cc1F (centres unmarked)", "measurementType": "Plant response rating, Pigweed", "result": 0}

====

Plant response rating, Pigweed for assorted compounds
# Tested on: pigweed
# assaySummary: Test A pre-/postemergence herbicide test
# Format: in vivo, Amaranthus retroflexus
# particulars: Postemergence, 125 g ai/ha; 0 to 100 scale, 0 is no effect, 100 is complete control

{"compound": "O=C1NCC(c2ccc(F)c(F)c2)C1C(=O)Nc1cccc(C(F)(F)F)n1 (racemic)", "tgt": "pigweed", "Plant response rating, Pigweed": 40}
{"compound": "CCc1cccc(C2CNC(=O)C2C(=O)Nc2ccccc2F)c1 (racemic)", "tgt": "pigweed", "Plant response rating, Pigweed": 0}
{"compound": "O=C1NCC(c2cccc3ccccc23)C1C(=O)Nc1ccccc1F (centres unmarked)", "tgt": "pigweed", "Plant response rating, Pigweed": 0}
{"compound": "O=C1NCC(c2ccc(OC(F)(F)F)cc2)C1C(=O)Nc1ccccc1F (racemic)", "tgt": "pigweed", "Plant response rating, Pigweed": 0}
{"compound": "O=C1NCC(c2ccc(C(F)(F)F)cc2F)C1C(=O)Nc1ccccc1C(F)(F)F (racemic)", "tgt": "pigweed", "Plant response rating, Pigweed": 0}
{"compound": "O=C1NCC(c2cccc(C(F)F)c2)C1C(=O)Nc1ccccc1F (racemic) [Compound 210]", "tgt": "pigweed", "Plant response rating, Pigweed": 0}
{"compound": "COc1ccc(NC(=O)C2C(=O)NCC2c2cccc(C(F)(F)F)c2)cc1F (racemic)", "tgt": "pigweed", "Plant response rating, Pigweed": 0}
{"compound": "Cc1cccc(NC(=O)C2C(=O)NCC2c2cccc(C(F)(F)F)c2)c1F (racemic)", "tgt": "pigweed", "Plant response rating, Pigweed": 0}
{"compound": "O=C1NCC(c2cccc(C(F)F)c2)C1C(=O)Nc1ccccc1F (racemic) [Compound 163]", "tgt": "pigweed", "Plant response rating, Pigweed": 0}
{"compound": "CS(=O)(=O)c1ccccc1NC(=O)C1C(=O)NCC1c1cccc(C(F)(F)F)c1 (racemic)", "tgt": "pigweed", "Plant response rating, Pigweed": 60}
{"compound": "O=C1NC[C@H](c2cccc(C(F)(F)F)c2)[C@H]1C(=O)Nc1cccc(F)c1F", "tgt": "pigweed", "Plant response rating, Pigweed": 50}
